System: SK-MEL-28 melanoma
assay-method-text: NCI tumour cell line growth inhibition, 48 h
I'd be grateful if you could share measured TGI for these entries.

compound=O=C(O)c1ccc(NCn2nc(-c3ccccc3O)oc2=S)cc1O test_value="> 100 µM"
compound="COC(=O)CCC(=O)C(CC(=O)OC)C(=O)CCC(=O)NCCc1ccccc1 (stereo unspecified)" test_value="> 100 µM"
compound=C#CCOCCCC(=O)O test_value="> 100 µM"
compound=NS(=O)(=O)c1ccc(N=Nc2c(O)[nH]c3cccc(CCc4ccncc4)c23)cc1 test_value="> 25 µM"

# per-item lookup of TGI; items listed below
1. COc1cc2c3c(n(CCCNC(C)(C)CO)c(=O)c2cc1OC)-c1cc2c(cc1C3=O)OCO2
2. N#C/C(=C\c1ccc([N+](=O)[O-])cc1)n1nnc2cc(F)c(F)cc21

> 65.6 µM
4.97 µM

* * *

For each entry below, report its TGI value.
System: K-562 leukemia
assay-method-text: NCI tumour cell line growth inhibition, 48 h

Answered cases to consult:
chem_smiles=N#C/C(=C\c1ccc([N+](=O)[O-])cc1)n1nnc2cc(F)c(F)cc21 test_value="> 100 µM"
chem_smiles=O=C(NCCCNc1cc(-c2cn(-c3ccccc3)nc2-c2cccc(O)c2)ccn1)c1ccc(F)cc1 test_value="> 100 µM"
chem_smiles=CC1(C)OC[C@@H]([C@H](C=O)OCc2ccccc2)O1 test_value="> 100 µM"
chem_smiles=Nc1nc(N)c2cc(Sc3ccc(Cl)cc3)ccc2n1 test_value="1.86 µM"
chem_smiles=O=C(NCCNc1nccc(-c2c(-c3ccc(F)cc3)nc3sccn23)n1)Nc1cccc(C(F)(F)F)c1 test_value="> 100 µM"

Okay, now this molecule:
Note down TGI recorded for `COc1cc(/C=C(\C)c2ccc3c(c2)OCO3)cc(OC)c1OC`
> 100 µM

* * *

Tested on: MCF7 breast
assay-method-text: NCI tumour cell line growth inhibition, 48 h; in the data active = GI50 below about 0.43 µM; inactive = the rest
Thanks in advance; please answer with one of these: active, inactive

molecule=NS(=O)(=O)c1ccc(N=Nc2c(O)[nH]c3cccc(CCc4ccncc4)c23)cc1 discrete_label=inactive

GET /call?item= `COc1ccc(/C=C/C(=O)c2ccc(B(O)O)cc2)cc1O` returns the recorded outcome of this test.
inactive

Check the results log: what was the call for `Nc1nc(N)c2cc(Sc3ccc(Cl)cc3)ccc2n1` ?
inactive

Short answer needed: outcome of this test for `COC(=O)Nc1nc2ccc(C(=O)C3CC3)cc2[nH]1` ?
active

Hey, what did the test say about `CCOC(=O)Nc1ccc2c3c(cccc13)-c1ccccc1-2` ?
inactive

Test call, this molecule: `CC(=O)NS(=O)(=O)c1ccc(-n2nc(-c3ccccc3)cc2-c2cc(O)ccc2O)cc1`
inactive

I would be grateful if you could indicate the recorded call for `NNC(=S)N/N=C/c1ccccn1` .
inactive

* * *

System: A549 NSCLC
assay-method-text: NCI tumour cell line growth inhibition, 48 h
property-measured: TGI

molecule=Cc1ccc(NCCO)cc1 property_measured=TGI test_value="> 100 µM"
molecule=CCOc1ccc(-n2c(=O)c3nn4c(=O)n(-c5ccc(OCC)cc5)c(=O)c4nn3c2=O)cc1 property_measured=TGI test_value="> 100 µM"
molecule="N#CC(NNC(=O)Cc1ccccc1)c1ccc(O)cc1 (stereo not given)" property_measured=TGI test_value="> 100 µM"
molecule="CC(=O)OC12c3ccccc3C(c3ccccc31)C1C(=O)N(c3ccccc3O)C(=O)C12 (stereo not given)" property_measured=TGI test_value="> 100 µM"
molecule="O=C1NC(=S)NC1C(Cc1ccccc1)c1ccco1 (stereo not given)" property_measured=TGI test_value="> 100 µM"

I have 2 molecules here; please give me TGI for each one.
1. c1ccc(C2C3=C(c4ccccc4CC3)N3c4cc5nc6ccccc6nc5cc4NC34CCCCC24)cc1 (stereo not given)
2. COC(=O)CCC(=O)C(CC(=O)OC)C(=O)CCC(=O)NCCc1ccccc1 (stereo not given)

1: > 10 µM; 2: > 100 µM

Please look at the items below and tell me TGI for each one, in order.
1. N#C/C(=C\c1ccc([N+](=O)[O-])cc1)n1nnc2cc(F)c(F)cc21
2. COc1ccc(-c2nc(Nc3ccc(F)cc3)nc(Nc3ccc4c(c3)nc(C)n4Cc3ccccc3)n2)cc1
3. Cc1cc(N(C)C)ccc1N=Nc1ccc2ncccc2c1

9.04 µM
> 100 µM
> 100 µM

// data source = PubChem BioAssay (NCI)
